meta.source: ChEMBL document CHEMBL1944596

- ASSAYED_SYSTEM: Casein kinase II subunit alpha' (Homo sapiens) (UniProt P19784)
- Sequence (P19784 whole entry, looked up): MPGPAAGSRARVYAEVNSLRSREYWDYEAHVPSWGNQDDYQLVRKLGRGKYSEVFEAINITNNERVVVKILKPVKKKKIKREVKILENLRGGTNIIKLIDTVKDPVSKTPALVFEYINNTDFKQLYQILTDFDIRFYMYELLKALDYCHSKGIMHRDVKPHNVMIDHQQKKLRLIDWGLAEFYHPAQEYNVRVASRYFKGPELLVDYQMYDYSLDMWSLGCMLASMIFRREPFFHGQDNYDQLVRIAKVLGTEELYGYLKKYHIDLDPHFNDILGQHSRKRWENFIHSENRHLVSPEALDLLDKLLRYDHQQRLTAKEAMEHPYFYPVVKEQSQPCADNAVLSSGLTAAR
- ASSAY_TEXT: Binding affinity to CK2alpha2 assessed as change in thermal denaturation at 10 uM by thermal stability shift assay
RECORDED_METRIC: ΔTm (°C)

[1] CCN1CCC2(CC1)NC(=O)c1c(c3ccc(Cl)c(Cl)c3n1C)C2C#N (racemic)
[2] N#CC1c2c([nH]c3c(Cl)c(Cl)ccc23)C(=O)NC12CCCCC2 (racemic)
[3] Cn1c2c(c3ccccc31)C(C#N)C(C)(C)NC2=O (stereo not given)
[4] Cn1c2c(c3ccc(Cl)c(Cl)c31)C(C#N)C1(CCN(C(=O)OC(C)(C)C)CC1)NC2=O (racemic)
# rank above entries by ΔTm (max first, min last) # format: label list in the order the request specifies
1, 2, 3, 4
(1: 1.8 °C, 2: 1.2 °C, 3: 0.7 °C, 4: 0.3 °C)

---

- ASSAYED_SYSTEM: cAMP-dependent protein kinase catalytic subunit PRKX (Homo sapiens)
- Sequence (whole entry): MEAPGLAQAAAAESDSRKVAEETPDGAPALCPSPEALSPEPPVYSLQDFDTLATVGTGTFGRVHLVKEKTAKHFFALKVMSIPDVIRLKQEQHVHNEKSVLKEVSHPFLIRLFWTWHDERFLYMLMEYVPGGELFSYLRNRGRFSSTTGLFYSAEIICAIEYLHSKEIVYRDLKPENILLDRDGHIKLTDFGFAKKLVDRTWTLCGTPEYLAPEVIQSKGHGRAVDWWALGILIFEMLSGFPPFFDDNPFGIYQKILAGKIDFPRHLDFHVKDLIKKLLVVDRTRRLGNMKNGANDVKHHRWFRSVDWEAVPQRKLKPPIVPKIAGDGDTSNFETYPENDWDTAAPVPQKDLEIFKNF
- ASSAY_TEXT: Binding affinity to PRKX assessed as change in thermal denaturation at 10 uM by thermal stability shift assay
RECORDED_METRIC: ΔTm (°C)

Completed entries (count: 4):
> print(dat)
                                   compound  result.units  numeric.readout
1  Cn1c2c(c3ccc(Cl)c(Cl)c31)C(C#N)C(C)(C)NC2=O (stereo unspecified)            °C              2.8
2  CC1(C)NC(=O)c2[nH]c3c(Cl)c(Cl)ccc3c2C1C#N (stereo unspecified)            °C              1.2
3       Cn1c2c(Cl)c(Cl)ccc2c2cn[nH]c(=O)c21            °C              0.3
4  CN1CCC2(CC1)NC(=O)c1c(c3ccc(Cl)c(Cl)c3n1C)C2C#N (racemic)            °C              3.3

[1] CCN1CCC2(CC1)NC(=O)c1c(c3ccc(Cl)c(Cl)c3n1C)C2C#N (racemic)
[2] CC(=O)NCC1c2c(n(C)c3c(Cl)c(Cl)ccc23)C(=O)NC1(C)C (racemic)
Please indicate which item has the smaller measured ΔTm: 1 versus 2 Please reply using the label of the selected record.
2

---

- ASSAYED_SYSTEM: Glycogen synthase kinase-3 beta (Homo sapiens) (UniProt P49841)
- Sequence (P49841 whole entry, looked up): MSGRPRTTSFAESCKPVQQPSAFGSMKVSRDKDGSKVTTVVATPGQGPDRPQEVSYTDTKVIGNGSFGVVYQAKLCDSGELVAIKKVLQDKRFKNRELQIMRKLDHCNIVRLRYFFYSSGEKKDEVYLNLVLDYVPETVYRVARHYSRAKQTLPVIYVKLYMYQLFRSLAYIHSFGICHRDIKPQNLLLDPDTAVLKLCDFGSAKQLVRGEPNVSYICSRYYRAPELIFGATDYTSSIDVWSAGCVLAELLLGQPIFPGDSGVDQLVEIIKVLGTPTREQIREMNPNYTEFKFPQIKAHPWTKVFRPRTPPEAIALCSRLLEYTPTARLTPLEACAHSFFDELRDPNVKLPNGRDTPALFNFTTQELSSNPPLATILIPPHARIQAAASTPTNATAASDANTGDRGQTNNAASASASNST
- ASSAY_TEXT: Binding affinity to GSK3-beta assessed as change in thermal denaturation at 10 uM by thermal stability shift assay
RECORDED_METRIC: ΔTm (°C)

> print(dat)
                                   compound  recorded.metric  result.units  numeric.readout
1  Cn1c2c(c3ccc(Cl)c(Cl)c31)C(C#N)C(C)(C)NC2=O (stereo not given)              ΔTm            °C              5.6
2  Cn1c2c(c3ccc(Cl)c(Cl)c31)C(C#N)C1(CCN(C(=O)OC(C)(C)C)CC1)NC2=O (racemic)              ΔTm            °C             -0.2
3  CCC1(CC)NC(=O)c2c(c3ccc(Cl)c(Cl)c3n2C)C1C#N (stereo not given)              ΔTm            °C                2

[1] CCN1CCC2(CC1)NC(=O)c1c(c3ccc(Cl)c(Cl)c3n1C)C2C#N (racemic)
[2] CN1CCC2(CC1)NC(=O)c1c(c3ccc(Cl)c(Cl)c3n1C)C2C#N (racemic)
[3] Cn1c2c(Cl)c(Cl)ccc2c2cn[nH]c(=O)c21
[4] CC(=O)NCC1c2c(n(C)c3c(Cl)c(Cl)ccc23)C(=O)NC1(C)C (racemic)
Rank entries according to their ΔTm, from the largest number down. Dear reader, please state the labels in the requested order.
3, 2, 1, 4

---

- ASSAYED_SYSTEM: Cyclin-G-associated kinase (Homo sapiens) (UniProt O14976)
- Sequence (O14976 whole entry): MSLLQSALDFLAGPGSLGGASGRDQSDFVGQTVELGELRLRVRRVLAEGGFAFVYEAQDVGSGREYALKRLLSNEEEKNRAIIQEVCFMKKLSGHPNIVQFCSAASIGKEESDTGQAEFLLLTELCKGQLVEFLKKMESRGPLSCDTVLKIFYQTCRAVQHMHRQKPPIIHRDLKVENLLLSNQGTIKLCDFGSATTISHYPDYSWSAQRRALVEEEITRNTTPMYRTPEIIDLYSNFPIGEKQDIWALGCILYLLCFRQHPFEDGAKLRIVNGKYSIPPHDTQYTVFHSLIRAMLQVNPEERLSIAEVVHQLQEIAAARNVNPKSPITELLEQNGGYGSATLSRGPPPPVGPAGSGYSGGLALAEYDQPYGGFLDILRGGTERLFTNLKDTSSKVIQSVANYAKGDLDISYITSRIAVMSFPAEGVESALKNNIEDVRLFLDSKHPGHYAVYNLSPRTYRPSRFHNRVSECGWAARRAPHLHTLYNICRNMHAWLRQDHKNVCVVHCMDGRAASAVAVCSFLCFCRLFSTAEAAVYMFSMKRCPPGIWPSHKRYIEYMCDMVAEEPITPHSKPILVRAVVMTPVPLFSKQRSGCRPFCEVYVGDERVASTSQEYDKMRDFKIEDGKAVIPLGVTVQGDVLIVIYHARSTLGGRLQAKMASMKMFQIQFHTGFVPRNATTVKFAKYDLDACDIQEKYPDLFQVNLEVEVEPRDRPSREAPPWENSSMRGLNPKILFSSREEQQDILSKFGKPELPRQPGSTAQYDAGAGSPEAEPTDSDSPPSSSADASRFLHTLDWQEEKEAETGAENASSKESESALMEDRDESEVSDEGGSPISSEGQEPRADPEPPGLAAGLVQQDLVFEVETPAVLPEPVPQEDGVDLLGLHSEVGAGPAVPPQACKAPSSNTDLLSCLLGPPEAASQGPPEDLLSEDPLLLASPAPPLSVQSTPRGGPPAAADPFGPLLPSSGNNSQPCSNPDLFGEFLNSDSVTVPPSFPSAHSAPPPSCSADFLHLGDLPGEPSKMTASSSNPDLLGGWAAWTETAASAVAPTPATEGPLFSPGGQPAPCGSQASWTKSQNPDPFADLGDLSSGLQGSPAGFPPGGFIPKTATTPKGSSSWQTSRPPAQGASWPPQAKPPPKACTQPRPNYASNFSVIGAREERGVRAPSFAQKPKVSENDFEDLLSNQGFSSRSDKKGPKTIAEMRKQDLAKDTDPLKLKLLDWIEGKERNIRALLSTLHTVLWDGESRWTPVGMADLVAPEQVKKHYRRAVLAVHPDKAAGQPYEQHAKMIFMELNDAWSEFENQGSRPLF
- ASSAY_TEXT: Binding affinity to GAK assessed as change in thermal denaturation at 10 uM by thermal stability shift assay
RECORDED_METRIC: ΔTm (°C)

> print(dat)
                                   compound  result.units  numeric.readout
1  CCC1(CC)NC(=O)c2c(c3ccc(Cl)c(Cl)c3n2C)C1C#N (configuration not stated)            °C              1.2
2  Cn1c2c(c3ccc(Cl)c(Cl)c31)C(C#N)C1(CCNCC1)NC2=O (racemic)            °C              1.4
3    Cn1c2c(Cl)c(Cl)ccc2c2cc(N)[nH]c(=O)c21            °C              4.3
4  CN1CCC2(CC1)NC(=O)c1c(c3ccc(Cl)c(Cl)c3n1C)C2C#N (racemic)            °C              0.8
5       Cn1c2c(Cl)c(Cl)ccc2c2cn[nH]c(=O)c21            °C              1.6
6  Cn1c2c(c3ccc(Cl)c(Cl)c31)C(C#N)C1(CCOCC1)NC2=O (configuration not stated)            °C              1.3

[a] N#CC1c2c([nH]c3c(Cl)c(Cl)ccc23)C(=O)NC12CCCCC2 (racemic)
[b] Cn1c2c(c3ccc(Cl)c(Cl)c31)C(C#N)C1(CCCCC1)NC2=O (racemic)
Given a and given b , which shows the smaller recorded ΔTm? Please respond with the label that marks your chosen entry.
b
(b: 0.9 °C, a: 2.8 °C)

---

- ASSAYED_SYSTEM: Serine/threonine-protein kinase pim-2 (Homo sapiens, UniProt Q9P1W9)
- Sequence (Q9P1W9 whole entry): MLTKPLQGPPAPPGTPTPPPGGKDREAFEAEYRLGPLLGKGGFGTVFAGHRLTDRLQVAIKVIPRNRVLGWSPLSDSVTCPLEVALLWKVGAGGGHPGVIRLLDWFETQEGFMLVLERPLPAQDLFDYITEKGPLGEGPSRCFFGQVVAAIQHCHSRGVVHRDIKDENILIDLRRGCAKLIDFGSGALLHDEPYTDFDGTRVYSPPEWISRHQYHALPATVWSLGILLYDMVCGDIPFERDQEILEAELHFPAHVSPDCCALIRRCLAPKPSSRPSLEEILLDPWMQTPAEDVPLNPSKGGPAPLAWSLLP
RECORDED_METRIC: pIC50
Recall that pIC50 is obtained by taking minus log10 of the concentration measured in molar.

I looked up Cn1c2c(c3ccc(Cl)c(Cl)c31)C(C#N)C1(CCNCC1)NC2=O (racemic) and its pIC50 for Serine/threonine-protein kinase pim-2 (Homo sapiens, UniProt Q9P1W9) was 6.62

---

- ASSAYED_SYSTEM: Serine/threonine-protein kinase pim-3 (Homo sapiens)
RECORDED_METRIC: IC50 (nM)
Field: numeric (nM). Do not append units.

# IC50 (compound: Cn1c2c(c3ccc(Cl)c(Cl)c31)C(C#N)C1(CCNCC1)NC2=O (racemic) ) is 90

---

- ASSAYED_SYSTEM: Serine/threonine-protein kinase 17B (Homo sapiens)
- ASSAY_TEXT: Binding affinity to DRAK2 assessed as change in thermal denaturation at 10 uM by thermal stability shift assay
RECORDED_METRIC: ΔTm (°C)

// worked examples, ΔTm included
> print(dat)
                                   molecule  numeric.readout
1  CC(=O)NCC1c2c(n(C)c3c(Cl)c(Cl)ccc23)C(=O)NC1(C)C (racemic)              1.6
2    Cn1c2c(Cl)c(Cl)ccc2c2cc(N)[nH]c(=O)c21                3
3  Cn1c2c(c3ccc(Cl)c(Cl)c31)C(C#N)C1(CCNCC1)NC2=O (racemic)              3.4

[1] Cn1c2c(c3ccc(Cl)c(Cl)c31)C(C#N)C1(CCCCC1)NC2=O (racemic)
[2] Cn1c2c(c3ccc(Cl)c(Cl)c31)C(C#N)C1(CCN(C(=O)OC(C)(C)C)CC1)NC2=O (racemic)
Please choose the item with the lower ΔTm value from this pair: 1 and 2 To answer, give the label that identifies your chosen option.
2
(2: 0 °C, 1: 2.9 °C)

---

- ASSAY_TEXT: Binding affinity to RSK4beta assessed as change in thermal denaturation at 10 uM by thermal stability shift assay
RECORDED_METRIC: ΔTm (°C)

> print(dat)
                                   molecule  numeric.readout
1  CC1(C)NC(=O)c2[nH]c3c(Cl)c(Cl)ccc3c2C1C#N (stereo not given)              0.1

[I] CCC1(CC)NC(=O)c2c(c3ccc(Cl)c(Cl)c3n2C)C1C#N (stereo not given)
[II] CN1CCC2(CC1)NC(=O)c1c(c3ccc(Cl)c(Cl)c3n1C)C2C#N (racemic)
[III] Cn1c2c(c3ccc(Cl)c(Cl)c31)C(CN)C(C)(C)NC2=O (racemic)
[IV] Cn1c2c(c3ccc(Cl)c(Cl)c31)C(C#N)C1(CCN(C(=O)OC(C)(C)C)CC1)NC2=O (racemic)
[V] CC(=O)NCC1c2c(n(C)c3c(Cl)c(Cl)ccc23)C(=O)NC1(C)C (racemic)
Hey, quick one: sort these by ΔTm, low to high? Write out the labels following the order that was asked for.
IV, I, II, V, III
(IV: -0.4 °C, I: -0.1 °C, II: 0.2 °C, V: 0.4 °C, III: 0.7 °C)
